# EC50 annotations
# ASSAY NAME: Inhibition of NS5A Y93H mutant in HCV genotype 1a assessed as decrease in viral replication
The response must be a number in nM with no trailing unit.

The examples below pair each entry with its known result.
COC(=O)N[C@H](C(=O)N1CCC[C@H]1c1ncc(-c2ccc3c(c2)Oc2ccc4cc(-c5cnc([C@@H]6CCCN6C(=O)[C@@H](NC(=O)OC)C(C)C)[nH]5)ccc4c2C3(C)C)[nH]1)C(C)C | 18
COC(=O)N[C@H](C(=O)N1CCC[C@H]1c1ncc(-c2ccc3c(ccc4oc5cc(-c6cnc([C@@H]7CCCN7C(=O)[C@@H](NC(=O)OC)C7CCOCC7)[nH]6)ccc5c(=O)c43)c2)[nH]1)C1CCOCC1 | 2
COC(=O)N[C@H](C(=O)N1CCC[C@H]1c1ncc(-c2ccc3c(=O)c4cc(-c5cnc([C@@H]6CCCN6C(=O)[C@@H](NC(=O)OC)C(C)C)[nH]5)ccc4oc3c2)[nH]1)C(C)C | 1730
COC(=O)N[C@H](C(=O)N1CCC[C@H]1c1ncc(-c2ccc3c(c2)Oc2ccc4cc(-c5cnc([C@@H]6CCCN6C[C@@H](NC(=O)OC)C6CCOCC6)[nH]5)ccc4c2[C@@H]3C)[nH]1)C1CCOCC1 | 0.5
COC(=O)N[C@H](C(=O)N1CCC[C@H]1c1ncc(-c2ccc3c(c2)Oc2ccc4cc(-c5cnc([C@@H]6CCCN6C(=O)[C@@H](NC(=O)OC)C(C)C)[nH]5)ccc4c2[C@H]3C)[nH]1)C(C)C | 7.2

// sample COC(=O)N[C@H](C(=O)N1C[C@H](F)C[C@H]1c1ncc(-c2ccc3c(ccc4oc5cc(-c6cnc([C@@H]7C[C@@H](F)CN7C(=O)[C@@H](NC(=O)OC)C7CCOCC7)[nH]6)ccc5c(=O)c43)c2)[nH]1)C1CCOCC1 , its EC50 was 0.18

// sample COC(=O)N[C@H](C(=O)N1CCC[C@H]1c1ncc(-c2ccc3c(ccc4c(=O)c5cc(-c6cnc([C@@H]7CCCN7C(=O)[C@@H](NC(=O)OC)C(C)C)[nH]6)ccc5oc43)c2)[nH]1)C(C)C , its EC50 was 66

// sample CC[C@@H]1c2ccc(-c3cnc([C@@H]4CCCN4C(=O)[C@@H](NC(=O)OC)C4CCOCC4)[nH]3)cc2Oc2ccc3cc(-c4cnc([C@@H]5CCCN5C[C@@H](NC(=O)OC)C5CCOCC5)[nH]4)ccc3c21 , its EC50 was 0.8

// sample CC[C@H]1c2ccc(-c3cnc([C@@H]4CCCN4C(=O)[C@@H](NC(=O)OC)C(C)C)[nH]3)cc2Oc2ccc3cc(-c4cnc([C@@H]5CCCN5C(=O)[C@@H](NC(=O)OC)C(C)C)[nH]4)ccc3c21 , its EC50 was 12

// sample COC(=O)N[C@H](C(=O)N1CCC[C@H]1c1ncc(-c2ccc3c(c2)Oc2ccc4cc(-c5cnc([C@@H]6CCCN6C[C@@H](NC(=O)OC)C6CCOCC6)[nH]5)ccc4c2C3(C)C)[nH]1)C1CCOCC1 , its EC50 was 0.7

// sample CCC1(CC)c2ccc(-c3cnc([C@@H]4CCCN4C(=O)[C@@H](NC(=O)OC)C(C)C)[nH]3)cc2Oc2ccc3cc(-c4cnc([C@@H]5CCCN5C(=O)[C@@H](NC(=O)OC)C(C)C)[nH]4)ccc3c21 , its EC50 was 4.1

// sample CCN(CC)[C@@H](C(=O)N1C[C@H](F)C[C@H]1c1ncc(-c2ccc3c(ccc4oc5cc(-c6cnc([C@@H]7C[C@@H](F)CN7C(=O)[C@@H](c7ccccc7)N(CC)CC)[nH]6)ccc5c(=O)c43)c2)[nH]1)c1ccccc1 , its EC50 was 506

// sample COC(=O)N[C@H](C(=O)N1CCC[C@H]1c1ncc(-c2ccc3c(c2)Oc2ccc4cc(-c5cnc([C@@H]6CCCN6C(=O)[C@@H](NC(=O)OC)C(C)C)[nH]5)ccc4c2[C@@H]3C)[nH]1)C(C)C , its EC50 was 11
